- Target: T1, CD70 ECD (Homo sapiens, UniProt P32970)
- T1 sequence (P32970 39-193 limits assumed): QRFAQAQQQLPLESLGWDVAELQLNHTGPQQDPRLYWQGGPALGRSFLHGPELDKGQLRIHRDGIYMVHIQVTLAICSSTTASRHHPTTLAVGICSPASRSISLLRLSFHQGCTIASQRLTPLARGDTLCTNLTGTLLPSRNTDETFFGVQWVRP
- Protocol notes: Biacore affinity measurement on immobilized CD70 ECD
- Type: binding
- Reported conditions: 25° C., CD70 immobilized
Kindly supply the reported ka values for the records listed here.
The figure you give is taken to be in M⁻¹ s⁻¹; do not add the unit.

Query: Looking for the measured ka of 2A4P0L1: new VH/VL combination derived from the VH of 2A4 and the VL of 2D2 (antibody, V domains shown) VH: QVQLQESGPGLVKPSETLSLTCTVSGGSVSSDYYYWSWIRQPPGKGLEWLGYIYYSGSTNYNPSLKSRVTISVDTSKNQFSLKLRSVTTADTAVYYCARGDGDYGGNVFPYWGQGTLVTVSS VL: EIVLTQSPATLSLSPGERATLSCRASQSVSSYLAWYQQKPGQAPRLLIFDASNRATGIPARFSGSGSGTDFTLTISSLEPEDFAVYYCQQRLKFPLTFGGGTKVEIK , can you help?
Reply: 51000

Query: Also, 2E7: anti-CD70 antibody clone, VH SEQ 7 and VL SEQ 8; tested as scFv and full human IgG1/kappa (antibody, V domains shown, Synthetic 2E7 VH amino acid sequence; Synthetic 2E7 VL amino acid sequence, tested as scFv and full human IgG1/kappa) VH: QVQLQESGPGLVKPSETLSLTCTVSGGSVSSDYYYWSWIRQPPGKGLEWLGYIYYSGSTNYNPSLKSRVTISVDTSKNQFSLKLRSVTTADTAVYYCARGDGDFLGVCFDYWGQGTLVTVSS VL: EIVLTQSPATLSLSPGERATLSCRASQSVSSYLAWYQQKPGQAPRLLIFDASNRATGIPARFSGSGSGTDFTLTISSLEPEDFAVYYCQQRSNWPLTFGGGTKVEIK please.
Reply: 75400

Query: Also, 1H8: anti-CD70 antibody clone, VH SEQ 5 and VL SEQ 6; scFv and full human IgG1/kappa (antibody, V domains shown) VH: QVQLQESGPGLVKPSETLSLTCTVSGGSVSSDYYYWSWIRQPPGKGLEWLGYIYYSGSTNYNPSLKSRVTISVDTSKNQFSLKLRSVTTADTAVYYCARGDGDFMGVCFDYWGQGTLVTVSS VL: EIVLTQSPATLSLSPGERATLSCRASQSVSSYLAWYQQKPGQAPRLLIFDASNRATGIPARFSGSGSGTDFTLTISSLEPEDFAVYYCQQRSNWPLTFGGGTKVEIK please.
Reply: 25600
